Test system: K562
Test: Antiproliferative activity against human K562 cells assessed as cell growth inhibition incubated for 8 hrs by CCK8 assay
Type: functional, cell-based
Settings: K562, 8 h
For each entry below, report its pIC50 value.
One number for each entry, as −log10 of the molar value.

Solved entries:
INSERT INTO results (compound, outcome_measure, assay_value) VALUES
  ('CN1c2ccc(F)cc2C(=O)N2CCc3c([nH]c4ccc(O)cc34)C21 (configuration not stated)', 'pIC50', 6.64),
  ('CN1c2ccc(F)cc2C(=O)N2CCc3c([nH]c4ccc(OCCCC(=O)NO)cc34)C21 (configuration not stated)', 'pIC50', 6.26),
  ('CN1c2ccc(F)cc2C(=O)N2CCc3c([nH]c4ccc(OCc5ccccc5C(=O)NO)cc34)C21 (configuration not stated)', 'pIC50', 7.07);

Required: pIC50, one value per compound below.
1. CN1c2ccc(F)cc2C(=O)N2CCc3c([nH]c4ccc(OCCCCC(=O)NO)cc34)C21 (configuration not stated)
2. CN1c2ccc(F)cc2C(=O)N2CCc3c([nH]c4ccc(OCc5ccc(/C=C/C(=O)NO)cc5)cc34)C21 (configuration not stated)

Reply:
1. 6.39
2. 6.46
